system: Neuregulin-1 EGF-like domain; assay: binders of neuregulin-1 EGF-like domain, primary screen, biochemical, small-molecule microarray, 635 nm fluorescence (AID 1081); conditions: small-molecule microarray binding, higher = more signal;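 note: binding of the protein to compounds printed on small-molecule microarray slides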
quantity: composite z-score
One number for each entry.

Quick one: give me composite z-score for each item below, same order please.
1. CCOC(=O)[C@H](Cc1ccccc1)NC(=O)CCC1CC(OC(=O)NCCc2ccc(F)cc2)CC2(CCCC(COC(=O)NCc3ccccc3)O2)O1 (stereo partly drawn)
2. CO[C@@H]1COC(=O)[C@@H](C)NC(=O)CC=C[C@@H](C)[C@H](NS(=O)(=O)c2ccc(C)cc2)COC(=O)[C@H](C)NC(=O)CC=C[C@H]1C
3. CCOC(=O)[C@H](Cc1ccccc1)NC(=O)CCC1CC(OC(=O)NCCc2ccc(F)cc2)CC2(CCCC(COC(=O)NCC3CCCCC3)O2)O1 (stereo partly drawn)

0.903
0.388
1.1

---

assay: basal MM1S mitochondrial membrane potential changes, profiling panel, cell-based, JC-1 fluorescence, 24 h, 100 nL compound (AID 1170); settings: higher = more signal; note: test concentration not given here
quantity: z-score
Give bare numbers.

Would you please look over these solved cases?
CO[C@@H]1COC(=O)[C@@H]2CCCN2C(=O)[C@@H](C)COC(=O)CC=C[C@H]1C ... -0.684
O=C1[C@H]2[C@H]3[C@H](O)[C@H](O)CC(=NOCc4ccccc4)[C@@H]3CC[C@H]2C(=O)N1Cc1ccc2c(c1)OCO2 ... -0.0728
C[C@H]1COC(=O)[C@@H]2CCCN2C(=O)[C@@H](C)COC(=O)[C@H](Cc2ccccc2)NC1=O ... -0.825
CCOC(=O)[C@H](CC(C)C)NC(=O)CCC1CC(OC(=O)NCc2cccc3ccccc23)CC2(CCCC(COC(=O)NCCc3ccc(Cl)cc3)O2)O1 (some centres undefined) ... -1.86
COC(=O)[C@@H]1CC[C@H](C)[C@@H](c2ccc(C)cc2)N1C(=O)c1ccc(C=NO[C@H](C)c2cn([C@H](CO)Cc3ccccc3)nn2)cc1 ... 0.697

Quick one: give me z-score for each item below, same order please.
1. CC(C)(C)N1C(=O)[C@H]2[C@H]3[C@H](O)[C@H](O)CC(=O)[C@H]3CC[C@H]2C1=O
2. COc1cccc([C@H]2Oc3ccc(OC)cc3C(=NO[C@H](C)c3cn([C@H](CO)Cc4ccccc4)nn3)[C@@H]2O)c1
3. CCOC(=O)NN=C1C[C@@H](O)[C@@H](O)[C@@H]2[C@@H]3C(=O)N(c4cccc(Oc5ccccc5)c4)C(=O)[C@@H]3CC[C@@H]12
4. CO[C@@H]1COC(=O)[C@H](CCSC)NC(=O)CC=C[C@@H](C)COC(=O)CCC[C@H]1C
5. CC(C)=CCCC(C)=CCON=C1C[C@@H](O)[C@@H](O)[C@@H]2[C@@H]3C(=O)N(C4CCCCC4)C(=O)[C@@H]3CC[C@@H]12
6. CO[C@H]1COC(=O)CC=C[C@@H](C)[C@H](OC)COC(=O)CCC[C@@H]1C

-0.512
-0.252
0.524
-0.0804
-0.859
-0.135

Quick one: give me z-score for each item below, same order please.
1. O=C1C[C@@H](O)[C@@H](O)[C@@H]2[C@@H]3C(=O)N(Cc4ccccc4)C(=O)[C@@H]3CC[C@@H]12
2. CC(C)=CCCC(C)=CCON=C1C[C@@H](O)[C@@H](O)[C@@H]2[C@@H]3C(=O)N(C(C)(C)C)C(=O)[C@@H]3CC[C@@H]12
3. O=c1n(-c2ccccc2)c(=O)n2n1CC[C@@H]1C(=NOCc3ccccc3)[C@H]3O[C@H]3[C@@H](O)[C@@H]12

0.431
0.947
-0.531

---

test: S. cerevisiae RM11-1a growth modifiers, primary screen, strain RM11-1a, OD600, basal, 24 h (AID 1177); details: OD600, 24 h, higher = more signal, called active from +8 up or from −8 down;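 note: cultures grown under basal conditions with no added stressor; test concentration not given here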
Entries are sorted into classes by z-score as follows: zone 1 = under -0.6, zone 2 = from -0.6 up to 0.2, zone 3 = 0.2 and over

O=C1C[C@@H](O)[C@@H](O)[C@@H]2[C@@H]3C(=O)N(C[C@@H]4CCCO4)C(=O)[C@@H]3CC[C@H]12 ... zone 3
CCOC(=O)[C@H](Cc1ccccc1)NC(=O)CCC1CC(OC(=O)NCCc2ccc(F)cc2)CC2(CCCC(COC(=O)NCCc3ccccc3OC)O2)O1 (stereo partly drawn) ... zone 3
COc1ccc(O[C@@H]2[C@H](O)CO[C@H]2C=Cc2ccccc2)cc1 ... zone 1
CCCNC(=O)OC[C@H]1O[C@H](CCON=Cc2ccc(C(=O)N3[C@H](c4ccc(C)cc4)[C@@H](C)CC[C@H]3C(=O)OC)cc2)C=C[C@@H]1Oc1ccc(OC)cc1 ... zone 3
CCOC(=O)[C@H](Cc1ccccc1)NC(=O)CCC1CC(OC(=O)NCCc2ccc(F)cc2)CC2(CCCC(COC(=O)NCc3ccccc3)O2)O1 (stereo partly drawn) ... zone 3
CCOC(=O)[C@H](Cc1ccccc1)NC(=O)CCC1CC(OC(=O)NCc2cccc3ccccc23)CC2(CCCC(COC(=O)NCc3ccccc3)O2)O1 (stereo partly drawn) ... zone 1
CC(C)CON=C1C[C@@H](O)[C@@H](O)[C@@H]2[C@@H]3C(=O)N(C4CCCCC4)C(=O)[C@@H]3CC[C@H]12 ... zone 2
O=C(NN=C1C[C@@H](O)[C@@H](O)[C@@H]2[C@@H]3C(=O)N(Cc4ccccc4)C(=O)[C@@H]3CC[C@@H]12)OCc1ccccc1 ... zone 2
COc1cc(O)c(C(=O)C=Cc2ccc3c(c2)OCO3)c(OC)c1 ... zone 3
CCOC(=O)[C@H](Cc1ccccc1)NC(=O)CCC1CC(OC(=O)NCc2cccc3ccccc23)CC2(CCCC(COC(=O)NCCC(C)C)O2)O1 (stereo partly drawn) ... zone 1

For CC(C)=CCCC(C)=CCON=C1C[C@@H](O)[C@@H](O)[C@@H]2[C@@H]3C(=O)N(C4CCCCC4)C(=O)[C@@H]3CC[C@@H]12 , which z-score bin applies?
zone 1

For CCCNC(=O)OC[C@H]1O[C@H](CCON=C(C)CCC(=O)OC[C@H]2O[C@H](c3ccccc3)C=C[C@@H]2Oc2ccc(OC)cc2)C=C[C@@H]1Oc1ccc(OC)cc1 , which z-score bin applies?
zone 2

For CO[C@H]1COC(=O)[C@H](C)NC(=O)[C@@H](C)COC(=O)[C@H]2CCCN2C(=O)CC=C[C@H]1C , which z-score bin applies?
zone 2

---

tested on: Human papillomavirus type 1a protein E7 (residues 44-93); assay: HPV1a E7 fragment binders on microarrays, primary screen, biochemical, small-molecule microarray, residues 44-93, 635 nm fluorescence (AID 1108); details: small-molecule microarray binding, fluorescence 635 nm; higher = more signal;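 note: E7 fragment applied at 1 µg/mL in TBST for 1 h at 4 C; score combines spot fluorescence with its signal to noise ratio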
quantity: composite z-score
One number for each entry.

Quick one: give me composite z-score for each item below, same order please.
1. C=CC[C@@H]1C=C[C@H](ON=C2[C@H]3CCn4c(=O)n(-c5ccccc5)c(=O)n4[C@H]3[C@H](O)[C@@H]3O[C@H]23)[C@@H](CO)O1
2. CC(=O)OC[C@H]1O[C@H](C#Cc2ccccc2)C=C[C@@H]1OC(C)=O
3. O=c1n(Cc2cc3c(cc2Cl)OCO3)c(=O)n2n1CC[C@@H]1C(=NOC[C@@H](O)COCc3ccco3)[C@H]3O[C@H]3[C@@H](O)[C@@H]12
4. CC(CCN1CCCCc2nc(C)c(C)cc21)=NO[C@H](C)c1cn([C@H](CO)Cc2ccccc2)nn1
5. CC(C)=CCCC(C)=CCON=C1C[C@@H](O)[C@@H](O)[C@@H]2[C@@H]3C(=O)N(C[C@@H]4CCCO4)C(=O)[C@@H]3CC[C@H]12

1. -0.268
2. -0.234
3. 0.77
4. 0.0596
5. 1.11

Quick one: give me composite z-score for each item below, same order please.
1. COC(=O)[C@@H]1CC[C@H](C)[C@@H](c2ccc(C)cc2)N1C(=O)c1ccc(C=NOCC[C@@H]2C=C[C@H](OC(C)=O)[C@@H](COC(C)=O)O2)cc1
2. CC(C)=CCCC(C)=CCON=C1C[C@@H](O)[C@@H](O)[C@@H]2[C@@H]3C(=O)N(C(C)(C)C)C(=O)[C@@H]3CC[C@@H]12

0.875
0.0739

---

assay: small-molecule microarray binders of probe aCHRDL2, primary screen, biochemical, biotinylated probe, 635/667 nm fluorescence (AID 1100); conditions: higher = more signal
Each entry gets F if its composite z-score stays under -0.4, and T if its composite z-score is -0.4 or above.

Study these solved cases before continuing.
C[C@H]1COC(=O)[C@@H]2CCCN2C(=O)[C@@H](C)COC(=O)[C@H](Cc2ccccc2)NC1=O ... F
CCOC(=O)[C@H](CC(C)C)NC(=O)CCC1CC(OC(=O)NCc2ccc3c(c2)OCO3)CC2(CCCC(COC(=O)NCCCN3CCCC3=O)O2)O1 (stereo partly specified) ... F
CC(CCN1CCCCc2nc(C)c(C)cc21)=NO[C@H](C)c1cn([C@H](CO)Cc2ccccc2)nn1 ... F

Does the compound CC(CCN1CCCc2nc(C)c(C)cc21)=NO[C@@H](C)c1cc(-c2c(C)cc(C)cc2C)no1 have recorded composite z-score that is -0.4 or more?
F

Does the compound CC(=O)OC[C@H]1OC(ON=CC[C@@H]2C=C[C@H](OC(C)=O)[C@@H](COC(C)=O)O2)[C@H](OC(C)=O)[C@@H](OC(C)=O)[C@@H]1OC(C)=O (stereo partly specified) have recorded composite z-score that is -0.4 or more?
T

Does the compound CO[C@@H]1C=CCC(=O)N2CCC[C@H]2C(=O)OC[C@@H](C)C(=O)OC[C@H]1C have recorded composite z-score that is -0.4 or more?
F

Does the compound C[C@H]1CC[C@H]2C(=O)O[C@H](COc3ccc(C(C)(C)C)cc3)CN2[C@@H]1c1ccc(Br)cc1 have recorded composite z-score that is -0.4 or more?
T

Does the compound O=C1CCCC=C1C(O)CCCCBr (stereo unspecified) have recorded composite z-score that is -0.4 or more?
T

Does the compound COc1ccc(O[C@H]2C=C[C@@H](c3ccccc3)O[C@@H]2CON=C(C)CCN2CCc3nc(-c4ccccc4)c(-c4ccccc4)cc3C2)cc1 have recorded composite z-score that is -0.4 or more?
T

Does the compound O=C1[C@H]2[C@H]3[C@H](O)[C@H](O)CC(=NOC[C@@H](O)COCc4ccco4)[C@@H]3CC[C@H]2C(=O)N1C[C@@H]1CCCO1 have recorded composite z-score that is -0.4 or more?
F

Does the compound COc1cc(O)c(C(=O)C=Cc2ccc3c(c2)OCO3)c(OC)c1 have recorded composite z-score that is -0.4 or more?
T

Does the compound CCOC(=O)NN=C1C[C@@H](O)[C@@H](O)[C@@H]2[C@@H]3C(=O)N(Cc4ccccc4)C(=O)[C@@H]3CC[C@H]12 have recorded composite z-score that is -0.4 or more?
T

Does the compound Cc1cc2c(nc1C)CCCCN2CC(C)ON=C[C@@H](C)[C@H](OCc1ccccc1)C(C)C (stereo partly specified) have recorded composite z-score that is -0.4 or more?
T

Does the compound CO[C@H]1COC(=O)CCC[C@@H](C)[C@H](OC)COC(=O)[C@@H](C)NC(=O)CC=C[C@@H]1C have recorded composite z-score that is -0.4 or more?
F
